Sourced from patent US11395857B2

assay: Biodistribution of 177Lu-labeled αMSH analogues in mice bearing SK-MEL-1 human melanoma; conditions: male, NRG (NOD.Cg-Rag1tm1Mom Il2rgtm1Wjl/SzJ), mouse, blood, total radioactivity
Listed here: items and their measured tissue uptake at 4 h.
endpoint: tissue uptake at 4 h (%ID/g)

INSERT INTO results (compound, observed_result) VALUES
  ('CCCC[C@H](NC(=O)CN1CCC(NC(=O)[C@H](CCCCNC(=O)CN2CCN(CC(=O)O)CCN(CC(=O)O)CCN(CC(=O)O)CC2)NC(=O)[C@H](CCC(=O)O)NC(=O)CCCc2ccc(I)cc2)CC1)C(=O)N[C@H]1CC(=O)NCCCC[C@@H](C(N)=O)N(C)C(=O)[C@H](Cc2c[nH]c3ccccc23)NC(=O)[C@H](CCCNC(=N)N)N(C)C(=O)[C@@H](Cc2ccccc2)NC(=O)[C@H](Cc2c[nH]cn2)NC1=O [^177Lu-labeled CCZ01118, metal not drawn]', 2.46),
  ('CCCC[C@H](NC(=O)CN1CCC(NC(=O)[C@H](CCCCNC(=O)CN2CCN(CC(=O)O)CCN(CC(=O)O)CCN(CC(=O)O)CC2)NC(=O)CNC(=O)CCCc2ccc(I)cc2)CC1)C(=O)N[C@H]1CC(=O)NCCCC[C@@H](C(N)=O)N(C)C(=O)[C@H](Cc2c[nH]c3ccccc23)NC(=O)[C@H](CCCNC(=N)N)N(C)C(=O)[C@@H](Cc2ccccc2)NC(=O)[C@H](Cc2c[nH]cn2)NC1=O [^177Lu-labeled CCZ01148, metal not drawn]', 22.7),
  ('CCCC[C@H](NC(=O)CN1CCC(NC(=O)[C@H](CCCCNC(=O)CN2CCN(CC(=O)O)CCN(CC(=O)O)CCN(CC(=O)O)CC2)NC(=O)CNC(=O)CCCc2ccc(-c3ccc(C)cc3)cc2)CC1)C(=O)N[C@H]1CC(=O)NCCCC[C@@H](C(N)=O)N(C)C(=O)[C@H](Cc2c[nH]c3ccccc23)NC(=O)[C@H](CCCNC(=N)N)N(C)C(=O)[C@@H](Cc2ccccc2)NC(=O)[C@H](Cc2c[nH]cn2)NC1=O [^177Lu-labeled CCZ01158, metal not drawn]', 10.8);

====

Assay: Biodistribution of 177Lu-labeled αMSH analogues in mice bearing B16F10 mouse melanoma
Assay type: in vivo, C57BL/6J mice
Details: male, mouse, seminal glands, iv, total radioactivity; 1 h p.i., C57BL/6J mice, B16F10 melanoma; read-out: Biodistribution, Seminal glands
Procedure: The B16-F10 mouse melanoma cells were cultured and inoculated in mice as described in Example 1. For biodistribution studies, approximately 1-2 MBq of ^177Lu-labeled αMSH analogues via tail vein under anesthesia. At 1, 4, 24, and 120 h p.i., the mice were euthanized by CO2 inhalation. Organs/tissues were harvested and the radioactivity was measured as described in Example 1.
Entries and their tissue uptake at 1 h
endpoint: tissue uptake at 1 h

INSERT INTO measurements (compound, observed_result) VALUES
  ('CCCC[C@H](NC(=O)CN1CCC(NC(=O)CN2CCN(CC(=O)O)CCN(CC(=O)O)CCN(CC(=O)O)CC2)CC1)C(=O)N[C@H]1CC(=O)NCCCC[C@@H](C(N)=O)N(C)C(=O)[C@H](Cc2c[nH]c3ccccc23)NC(=O)[C@H](CCCNC(=N)N)N(C)C(=O)[C@@H](Cc2ccccc2)NC(=O)[C@H](Cc2c[nH]cn2)NC1=O [^177Lu-labeled CCZ01106, metal not drawn]', '0.22 %ID/g'),
  ('CCCC[C@H](NC(=O)CN1CCC(NC(=O)[C@H](CCCCNC(=O)CN2CCN(CC(=O)O)CCN(CC(=O)O)CCN(CC(=O)O)CC2)NC(=O)[C@H](CCC(=O)O)NC(=O)CCCc2ccc(I)cc2)CC1)C(=O)N[C@H]1CC(=O)NCCCC[C@@H](C(N)=O)NC(=O)[C@H](Cc2c[nH]c3ccccc23)NC(=O)[C@H](CCCNC(=N)N)NC(=O)[C@@H](Cc2ccccc2)NC(=O)[C@H](Cc2c[nH]cn2)NC1=O [^177Lu-labeled CCZ01082, metal not drawn]', '0.48 %ID/g'),
  ('CCCC[C@H](NC(=O)CN1CCC(NC(=O)CN2CCN(CC(=O)O)CCN(CC(=O)O)CCN(CC(=O)O)CC2)CC1)C(=O)N[C@H]1CC(=O)NCCCC[C@@H](C(N)=O)NC(=O)[C@H](Cc2c[nH]c3ccccc23)NC(=O)[C@H](CCCNC(=N)N)NC(=O)[C@@H](Cc2ccccc2)NC(=O)[C@H](Cc2c[nH]cn2)NC1=O [^177Lu-labeled CCZ01048, metal not drawn, reference compound]', '0.16 %ID/g');
